# target-desc: LmjIPCS (inositol phosphorylceramide synthase from L. major) (Leishmania major, UniProt E9AFX2)
# Sequence (E9AFX2 1-338): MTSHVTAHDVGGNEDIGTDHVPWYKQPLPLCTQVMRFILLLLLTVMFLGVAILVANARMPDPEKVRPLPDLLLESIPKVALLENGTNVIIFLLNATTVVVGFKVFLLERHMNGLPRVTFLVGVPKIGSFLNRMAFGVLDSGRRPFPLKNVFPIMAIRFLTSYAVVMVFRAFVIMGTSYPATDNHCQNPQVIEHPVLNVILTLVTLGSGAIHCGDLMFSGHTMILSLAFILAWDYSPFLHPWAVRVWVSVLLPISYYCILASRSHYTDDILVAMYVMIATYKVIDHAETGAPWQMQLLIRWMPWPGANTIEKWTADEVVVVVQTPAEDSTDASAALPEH
# method: biochemical
# Format: biochemical
# particulars: read-out: 20mM inhibition LmjIPCS
For each of the compounds below, state its inhibition at 20000 µM.
One number for each entry, in %.

A selection of reference data follows.
[[record]]
compound = "O=C1CCCN1CC#CCN1CCCC1"
reported_value = 4

[[record]]
compound = "N#C[C@H](O[C@@H]1O[C@H](CO[C@@H]2O[C@H](CO)[C@@H](O)[C@H](O)[C@H]2O)[C@@H](O)[C@H](O)[C@H]1O)c1ccccc1"
reported_value = -4

[[record]]
compound = "CC(=O)NS(=O)(=O)c1ccc(N)cc1 [SULFACETAMIDE]"
reported_value = -1.63

[[record]]
compound = "O=c1c(O)c(-c2ccc(O)c(O)c2)oc2cc(O)cc(O)c12"
reported_value = 3.45


Your task in this section: give inhibition at 20000 µM for each listed record.
1. CC=CC(=O)N(CC)c1ccccc1C (mixture of isomers)
2. C[C@@H](CO)NC(=O)[C@@H]1C=C2c3cccc4[nH]cc(c34)C[C@H]2N(C)C1
3. CC(=O)Oc1ccccc1C(=O)O
4. COc1cc2c3cc1Oc1c(OC)c(OC)cc4c1[C@@H](Cc1ccc(O)c(c1)Oc1ccc(cc1)C[C@@H]3N(C)CC2)N(C)CC4
5. NC(=O)NC1NC(=O)NC1=O (centres unmarked)
6. O=S(=O)(O)CCS
7. Cc1cc(NC(=O)C2=C(O)c3ccccc3S(=O)(=O)N2C)no1
8. CCC[C@@H]1C[C@@H](C(=O)N[C@@H]([C@H]2O[C@H](SC)[C@H](O)[C@@H](O)[C@H]2O)[C@@H](C)O)N(C)C1

Reply:
1. 22
2. 6.33
3. 23
4. 18
5. 18
6. -0.783
7. -3
8. 8.53

Could I get inhibition at 20000 µM for every one of these entries?
1. Nc1nccs1
2. CC(=O)OC(C)C[N+](C)(C)C (centres unmarked) [METHACHOLINE CHLORIDE]
3. CC(=O)OCC(=O)[C@@]12OC(C)(C)O[C@@H]1C[C@H]1[C@@H]3C[C@H](F)C4=CC(=O)C=C[C@]4(C)[C@@]3(F)[C@@H](O)C[C@@]12C [FLUOCINONIDE]
4. COC(=O)[C@H](c1ccccc1Cl)N1CCc2sccc2C1
5. CCN1CCN(C(=O)N[C@@H](C(=O)N[C@@H]2C(=O)N3C(C(=O)O)=C(CSc4nnnn4C)CS[C@H]23)c2ccc(O)cc2)C(=O)C1=O
6. CCCCCCNC(=O)n1cc(F)c(=O)[nH]c1=O
7. CC(=O)O[C@]1(C(C)=O)CC[C@H]2[C@@H]3C=C(Cl)C4=CC(=O)CC[C@]4(C)[C@H]3CC[C@@]21C [CHLORMADINONE ACETATE]
8. O=C(O)c1cc(=O)c2ccccc2[nH]1

Reply:
[-32, -18, 6, 32, 13, 14, 13, 6]

I'm hoping you can list inhibition at 20000 µM for every compound here, please.
1. COc1ccc(C(=O)O[C@H]2CC[C@@]3(C)[C@@H]4CC[C@H]5[C@]6(O)C[C@H](O)[C@@]7(O)[C@@H](CN8C[C@@H](C)CC[C@H]8[C@@]7(C)O)[C@]6(O)C[C@@]53O[C@]24O)cc1OC
2. CC(C)[N+]1(C)[C@@H]2CC[C@H]1C[C@@H](OC(=O)C(CO)c1ccccc1)C2 (some centres unmarked) [IPRATROPIUM BROMIDE]
3. O=C(O)c1cc2cc(Cc3cccnc3)ccc2o1 [FUREGRELATE]
4. c1ccc([C@H]2CN3CCSC3=N2)cc1
5. C=C(C)[C@@H]1CC=C(CO)CC1
6. CC(=O)[C@H]1CC[C@H]2[C@@H]3C[C@H](C)C4=CC(=O)CC[C@]4(C)[C@H]3[C@@H](O)C[C@]12C
7. O=C1C=CC(=C(c2ccc(O)cc2)c2ccc(O)cc2)C=C1
8. O=C1C(Cl)=C(Cl)C(=O)C(Cl)=C1Cl

Reply:
[11, -7, -16, 2.52, 11, 14, -11, 19]

Provide inhibition at 20000 µM for all items below, preserving their order.
1. CC1(C)NC(=O)N(c2ccc([N+](=O)[O-])c(C(F)(F)F)c2)C1=O [NILUTAMIDE]
2. OC[C@H]1O[C@@H](O[C@@H]2[C@@H](CO)OC(O)(CO)[C@H]2O)[C@H](O)[C@@H](O)[C@H]1O (mixture of isomers)
3. CCOc1ccc2ccccc2c1C(=O)N[C@@H]1C(=O)N2[C@@H]1SC(C)(C)[C@@H]2C(=O)O
4. C[C@H]1O[C@@H](O[C@H]2[C@@H](O)C[C@H](O[C@H]3[C@@H](O)C[C@H](O[C@H]4CC[C@@]5(C)[C@H](CC[C@@H]6[C@@H]5CC[C@]5(C)[C@@H](C7=CC(=O)OC7)CC[C@]65O)C4)O[C@@H]3C)O[C@@H]2C)C[C@H](O)[C@@H]1O

Reply:
4
26
4.73
5.28
